All values here come from PubChem BioAssay (NCI).

Test system: MALME-3M melanoma
Experiment: NCI tumour cell line growth inhibition, 48 h
Measurement Type: TGI (µM)
Please give a number only; it is taken to be in µM.

Please review the entries below; each comes with its answer.
[[record]]
molecule = "C(=N\\NC1=NCCCN1)/c1ccc(-c2cn3cc(/C=N/NC4=NCCCN4)ccc3n2)cc1"
result_value = 87.4

[[record]]
molecule = "CC1OC(OC2C(CO)OC(O[C@H]3CC[C@@]4(C)C(=CC[C@H]5[C@@H]6C[C@@H]7O[C@](O)(CC[C@@H](C)COC8OC(CO)C(O)C(O)C8O)[C@@H](C)[C@@H]7[C@@]6(C)CC[C@@H]54)C3)C(OC3OC(C)C(O)C(O)C3O)C2O)C(O)C(O)C1O (some centres not stated)"
result_value = 4.1

[[record]]
molecule = "NS(=O)(=O)c1ccc(CNC(=S)NC(=O)Nc2ccc(Cl)c(Cl)c2)cc1"
result_value = 57.1


We next turn to a different molecule, shown below.
TGI for C=C1C(=O)O[C@H]2[C@H]1CC/C(COC(=O)CCC(=O)OC/C1=C/CC[C@@]3(C)O[C@H]3[C@H]3OC(=O)C(=C)[C@@H]3CC1)=C\CC[C@@]1(C)O[C@@H]21 ?
2.88
